Provide the reported kinase still bound, per cent of control of each item.
subject.of.test: FYN (human)
method.notes: KINOMEscan competition binding
cond: compound 10.0 µM
Express the result in % but write the number alone.

Provide measured kinase still bound, per cent of control value, entry: COC(=O)Nc1ccc(-c2nc(N3CCOCC3)c3cnn(C4CCN(C(=O)OC)CC4)c3n2)cc1
99

Give the reported kinase still bound, per cent of control for this molecule. COc1ccc(-c2ccc3c(N4CCOCC4)nc(N4C[C@@H](C)O[C@@H](C)C4)nc3n2)cc1CO
96

Using the record for CCC(=O)N1CCN(c2ccc(-n3c(=O)ccc4cnc5ccc(-c6cnc7ccccc7c6)cc5c43)cc2C(F)(F)F)CC1 , state its measured kinase still bound, per cent of control.
49

Supply measured kinase still bound, per cent of control of CC(C)n1nc(-c2cc3cc(O)ccc3[nH]2)c2c(N)ncnc21 in your reply.
4.6

====

subject.of.test: UniProtKB P29376
Sequence (P29376 whole entry, looked up): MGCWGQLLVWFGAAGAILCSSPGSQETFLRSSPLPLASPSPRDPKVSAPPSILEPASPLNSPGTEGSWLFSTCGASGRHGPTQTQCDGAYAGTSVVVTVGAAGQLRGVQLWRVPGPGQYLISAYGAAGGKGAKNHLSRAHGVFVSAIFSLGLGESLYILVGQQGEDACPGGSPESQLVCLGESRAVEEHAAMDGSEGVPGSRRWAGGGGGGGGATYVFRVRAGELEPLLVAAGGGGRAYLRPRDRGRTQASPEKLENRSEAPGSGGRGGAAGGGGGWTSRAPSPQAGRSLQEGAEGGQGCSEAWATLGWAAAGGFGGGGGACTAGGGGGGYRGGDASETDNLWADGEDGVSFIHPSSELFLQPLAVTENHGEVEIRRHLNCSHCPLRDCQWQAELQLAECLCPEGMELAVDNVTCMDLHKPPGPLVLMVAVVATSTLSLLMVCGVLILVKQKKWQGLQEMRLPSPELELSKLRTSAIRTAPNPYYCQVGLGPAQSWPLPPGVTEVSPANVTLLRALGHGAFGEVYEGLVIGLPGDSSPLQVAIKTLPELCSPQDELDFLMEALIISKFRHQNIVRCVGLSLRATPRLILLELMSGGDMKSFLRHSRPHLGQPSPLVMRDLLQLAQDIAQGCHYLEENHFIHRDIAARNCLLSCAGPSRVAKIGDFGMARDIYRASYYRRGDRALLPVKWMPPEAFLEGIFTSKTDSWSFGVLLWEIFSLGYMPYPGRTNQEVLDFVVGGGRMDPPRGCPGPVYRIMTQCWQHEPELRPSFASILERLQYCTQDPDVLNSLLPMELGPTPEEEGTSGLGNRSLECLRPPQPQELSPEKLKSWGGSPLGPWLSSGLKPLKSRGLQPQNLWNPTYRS
method.notes: KINOMEscan competition binding
cond: compound 10.0 µM
measured.attribute: kinase still bound, per cent of control (%)
Please respond with the number in % and leave the unit unwritten.

Please give the documented kinase still bound, per cent of control of CCC(=O)N1CCN(c2ccc(-n3c(=O)ccc4cnc5ccc(-c6cnc7ccccc7c6)cc5c43)cc2C(F)(F)F)CC1
77

Respond only with kinase still bound, per cent of control recorded for COc1ccc(-c2ccc3c(N4CCOCC4)nc(N4C[C@@H](C)O[C@@H](C)C4)nc3n2)cc1CO
96

// fetch kinase still bound, per cent of control given entry CC(C)n1nc(-c2cc3cc(O)ccc3[nH]2)c2c(N)ncnc21
16

Provide measured kinase still bound, per cent of control value, entry: COC(=O)Nc1ccc(-c2nc(N3CCOCC3)c3cnn(C4CCN(C(=O)OC)CC4)c3n2)cc1
87

====

subject.of.test: FGFR1 (human)
cond: compound 10.0 µM
I'd be grateful if you could share measured per cent of control for these entries.
Kindly provide the numeric value in % only, without the unit symbol.

Answer with reported per cent of control of COC(=O)Nc1ccc(-c2nc(N3CCOCC3)c3cnn(C4CCN(C(=O)OC)CC4)c3n2)cc1
109

For the compound CCC(=O)N1CCN(c2ccc(-n3c(=O)ccc4cnc5ccc(-c6cnc7ccccc7c6)cc5c43)cc2C(F)(F)F)CC1 , give its reported per cent of control.
79

Answer with the recorded per cent of control for the compound listed here: CC(C)n1nc(-c2cc3cc(O)ccc3[nH]2)c2c(N)ncnc21
2

Supply per cent of control value. Item: COc1ccc(-c2ccc3c(N4CCOCC4)nc(N4C[C@@H](C)O[C@@H](C)C4)nc3n2)cc1CO
87

====

subject.of.test: FLT3 (human)
method.notes: KINOMEscan competition binding
cond: compound 10.0 µM
measured.attribute: kinase still bound, per cent of control (%)
Give the quantity in %, number only.

Name the recorded kinase still bound, per cent of control of the item CCC(=O)N1CCN(c2ccc(-n3c(=O)ccc4cnc5ccc(-c6cnc7ccccc7c6)cc5c43)cc2C(F)(F)F)CC1 in your answer.
16

Please give measured kinase still bound, per cent of control of the following entry: COC(=O)Nc1ccc(-c2nc(N3CCOCC3)c3cnn(C4CCN(C(=O)OC)CC4)c3n2)cc1
100

Supply reported kinase still bound, per cent of control belonging to this compound: CC(C)n1nc(-c2cc3cc(O)ccc3[nH]2)c2c(N)ncnc21
40

Return kinase still bound, per cent of control (reported value) for this compound: COc1ccc(-c2ccc3c(N4CCOCC4)nc(N4C[C@@H](C)O[C@@H](C)C4)nc3n2)cc1CO
71

====

subject.of.test: SIK3 (human)
method.notes: KINOMEscan competition binding
cond: compound 10.0 µM
Kindly state kinase still bound, per cent of control for each of the entries shown.
Please respond with the number in % and leave the unit unwritten.

For the compound CCC(=O)N1CCN(c2ccc(-n3c(=O)ccc4cnc5ccc(-c6cnc7ccccc7c6)cc5c43)cc2C(F)(F)F)CC1 , report kinase still bound, per cent of control.
89

Fill in reported kinase still bound, per cent of control for this entry: CC(C)n1nc(-c2cc3cc(O)ccc3[nH]2)c2c(N)ncnc21
20

Supply measured kinase still bound, per cent of control of COC(=O)Nc1ccc(-c2nc(N3CCOCC3)c3cnn(C4CCN(C(=O)OC)CC4)c3n2)cc1 in your reply.
83

Give kinase still bound, per cent of control for COc1ccc(-c2ccc3c(N4CCOCC4)nc(N4C[C@@H](C)O[C@@H](C)C4)nc3n2)cc1CO
97

====

Consider the following compounds; for each one, report its per cent of control.
subject.of.test: MAPK12 (human) (UniProt P53778)
Sequence (P53778 whole entry, looked up): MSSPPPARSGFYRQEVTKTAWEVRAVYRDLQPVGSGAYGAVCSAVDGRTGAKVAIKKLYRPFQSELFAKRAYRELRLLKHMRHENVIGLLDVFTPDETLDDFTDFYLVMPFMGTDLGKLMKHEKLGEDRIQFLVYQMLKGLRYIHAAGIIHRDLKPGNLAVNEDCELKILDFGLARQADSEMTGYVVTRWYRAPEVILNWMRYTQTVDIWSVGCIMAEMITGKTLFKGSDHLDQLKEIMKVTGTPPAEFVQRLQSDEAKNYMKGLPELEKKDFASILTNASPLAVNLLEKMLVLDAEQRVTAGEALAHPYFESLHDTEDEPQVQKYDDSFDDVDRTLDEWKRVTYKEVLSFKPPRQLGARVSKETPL
cond: compound 10.0 µM
// return numeric value only (unit: %, not printed)

State the measured per cent of control (MAPK12 (human) (UniProt P53778)) of COc1ccc(-c2ccc3c(N4CCOCC4)nc(N4C[C@@H](C)O[C@@H](C)C4)nc3n2)cc1CO
91

Provide MAPK12 (human) (UniProt P53778) per cent of control reading for COC(=O)Nc1ccc(-c2nc(N3CCOCC3)c3cnn(C4CCN(C(=O)OC)CC4)c3n2)cc1 .
17

Report per cent of control under test system MAPK12 (human) (UniProt P53778) for CC(C)n1nc(-c2cc3cc(O)ccc3[nH]2)c2c(N)ncnc21 .
72

# return per cent of control of CCC(=O)N1CCN(c2ccc(-n3c(=O)ccc4cnc5ccc(-c6cnc7ccccc7c6)cc5c43)cc2C(F)(F)F)CC1 (system: MAPK12 (human) (UniProt P53778))
129

====

Would you mind telling me the reported kinase still bound, per cent of control of each entry?
subject.of.test: UniProtKB Q09013
Sequence (Q09013 whole entry, looked up): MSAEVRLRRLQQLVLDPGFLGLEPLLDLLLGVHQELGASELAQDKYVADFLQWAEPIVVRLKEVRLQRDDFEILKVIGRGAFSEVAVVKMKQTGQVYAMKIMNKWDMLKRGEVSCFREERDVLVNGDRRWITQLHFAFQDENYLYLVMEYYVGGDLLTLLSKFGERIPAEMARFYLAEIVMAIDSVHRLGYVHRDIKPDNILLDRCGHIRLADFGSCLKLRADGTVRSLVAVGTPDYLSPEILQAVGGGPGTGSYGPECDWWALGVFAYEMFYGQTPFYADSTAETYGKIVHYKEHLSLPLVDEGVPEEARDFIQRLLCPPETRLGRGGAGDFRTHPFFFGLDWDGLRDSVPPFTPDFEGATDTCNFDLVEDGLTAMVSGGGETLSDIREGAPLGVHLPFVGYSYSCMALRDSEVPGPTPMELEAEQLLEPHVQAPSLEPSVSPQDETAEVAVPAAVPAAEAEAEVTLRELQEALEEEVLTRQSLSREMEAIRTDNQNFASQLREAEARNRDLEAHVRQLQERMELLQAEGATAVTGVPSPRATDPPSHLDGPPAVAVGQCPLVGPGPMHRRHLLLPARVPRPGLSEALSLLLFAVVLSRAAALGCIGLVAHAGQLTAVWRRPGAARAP
method.notes: KINOMEscan competition binding
cond: compound 10.0 µM
Please state the number and follow it with the unit.

Supply reported kinase still bound, per cent of control belonging to this compound: CC(C)n1nc(-c2cc3cc(O)ccc3[nH]2)c2c(N)ncnc21
0.55%

State, in one line, measured kinase still bound, per cent of control of CCC(=O)N1CCN(c2ccc(-n3c(=O)ccc4cnc5ccc(-c6cnc7ccccc7c6)cc5c43)cc2C(F)(F)F)CC1
77%

Output kinase still bound, per cent of control of COc1ccc(-c2ccc3c(N4CCOCC4)nc(N4C[C@@H](C)O[C@@H](C)C4)nc3n2)cc1CO
86%

Look up and report measured kinase still bound, per cent of control for this entry: COC(=O)Nc1ccc(-c2nc(N3CCOCC3)c3cnn(C4CCN(C(=O)OC)CC4)c3n2)cc1
100%

====

subject.of.test: MAPK12 (human) (UniProt P53778)
cond: compound 1.0 µM
What per cent of control was measured for each of the following?

Identify measured per cent of control associated with COc1ccc(-c2ccc3c(N4CCOCC4)nc(N4C[C@@H](C)O[C@@H](C)C4)nc3n2)cc1CO
89%

Identify per cent of control associated with the compound COC(=O)Nc1ccc(-c2nc(N3CCOCC3)c3cnn(C4CCN(C(=O)OC)CC4)c3n2)cc1
55%

Using the record for CCC(=O)N1CCN(c2ccc(-n3c(=O)ccc4cnc5ccc(-c6cnc7ccccc7c6)cc5c43)cc2C(F)(F)F)CC1 , state its measured per cent of control.
103%

Identify per cent of control associated with the compound CC(C)n1nc(-c2cc3cc(O)ccc3[nH]2)c2c(N)ncnc21
96%

====

subject.of.test: MAPK3 (human) (UniProt P27361)
Sequence (P27361 whole entry, looked up): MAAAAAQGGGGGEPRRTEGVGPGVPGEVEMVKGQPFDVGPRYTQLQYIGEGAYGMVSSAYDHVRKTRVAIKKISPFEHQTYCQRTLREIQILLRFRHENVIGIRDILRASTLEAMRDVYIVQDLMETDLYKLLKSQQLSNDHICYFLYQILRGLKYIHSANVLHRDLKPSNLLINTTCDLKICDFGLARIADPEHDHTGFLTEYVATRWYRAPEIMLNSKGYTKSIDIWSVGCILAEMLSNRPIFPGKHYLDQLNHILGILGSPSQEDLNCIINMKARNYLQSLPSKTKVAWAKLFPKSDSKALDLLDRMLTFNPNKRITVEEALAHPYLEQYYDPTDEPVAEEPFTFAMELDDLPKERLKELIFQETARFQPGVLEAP
cond: compound 1.0 µM
measured.attribute: per cent of control (%)
Number in %, nothing else.

Please report per cent of control for the following molecule: CCC(=O)N1CCN(c2ccc(-n3c(=O)ccc4cnc5ccc(-c6cnc7ccccc7c6)cc5c43)cc2C(F)(F)F)CC1
99

Check the records and state per cent of control for CC(C)n1nc(-c2cc3cc(O)ccc3[nH]2)c2c(N)ncnc21
88

Specify per cent of control for COc1ccc(-c2ccc3c(N4CCOCC4)nc(N4C[C@@H](C)O[C@@H](C)C4)nc3n2)cc1CO and stop.
102

Tell us which per cent of control value is on record for COC(=O)Nc1ccc(-c2nc(N3CCOCC3)c3cnn(C4CCN(C(=O)OC)CC4)c3n2)cc1
90

====

subject.of.test: CDK2 (human) (UniProt P24941)
method.notes: KINOMEscan competition binding
cond: compound 10.0 µM
measured.attribute: per cent of control (%)
Report only the number, with the unit % understood.

Identify the reported per cent of control for the following entry. CC(C)n1nc(-c2cc3cc(O)ccc3[nH]2)c2c(N)ncnc21
69

Read off the recorded per cent of control for COc1ccc(-c2ccc3c(N4CCOCC4)nc(N4C[C@@H](C)O[C@@H](C)C4)nc3n2)cc1CO
77

Answer with reported per cent of control of COC(=O)Nc1ccc(-c2nc(N3CCOCC3)c3cnn(C4CCN(C(=O)OC)CC4)c3n2)cc1
91

Fill in reported per cent of control for this entry: CCC(=O)N1CCN(c2ccc(-n3c(=O)ccc4cnc5ccc(-c6cnc7ccccc7c6)cc5c43)cc2C(F)(F)F)CC1
6.2

====

subject.of.test: FLT4 (human)
method.notes: KINOMEscan competition binding
cond: compound 10.0 µM
Field: kinase still bound, per cent of control. Provide a value for each of the molecules that follow.
# output: number + unit

Provide only the value of recorded kinase still bound, per cent of control for COC(=O)Nc1ccc(-c2nc(N3CCOCC3)c3cnn(C4CCN(C(=O)OC)CC4)c3n2)cc1
92%

// Input: COc1ccc(-c2ccc3c(N4CCOCC4)nc(N4C[C@@H](C)O[C@@H](C)C4)nc3n2)cc1CO . Output its kinase still bound, per cent of control only.
100%

For the molecule CCC(=O)N1CCN(c2ccc(-n3c(=O)ccc4cnc5ccc(-c6cnc7ccccc7c6)cc5c43)cc2C(F)(F)F)CC1 , give its reported kinase still bound, per cent of control.
74%

Dear colleague, please send me the reported kinase still bound, per cent of control for CC(C)n1nc(-c2cc3cc(O)ccc3[nH]2)c2c(N)ncnc21 when you can.
0.3%
